Each recorded value in this set is attributed to ChEMBL document CHEMBL1155883.

system: Human immunodeficiency virus type 1 reverse transcriptase (Human immunodeficiency virus 1), Q72547 [L100I]

- CPD_SMILES: "CCc1c(Cc2c(Cl)cccc2Cl)nc(SCC(=O)c2ccc(F)cc2)[nH]c1=O"
  ID50 [µM]: 1.82
- CPD_SMILES: "CCc1c(Cc2c(F)cccc2F)nc(SCC(=O)c2ccc(F)cc2)[nH]c1=O"
  ID50 [µM]: 6.9
- CPD_SMILES: "COc1ccc(C(=O)CSc2nc(Cc3c(F)cccc3Cl)c(C)c(=O)[nH]2)cc1"
  ID50 [µM]: 25
- CPD_SMILES: "CC(C)c1c(Cc2c(F)cccc2Cl)nc(SCC(=O)c2ccccc2)[nH]c1=O"
  ID50 [µM]: 1.3

* * *

Recorded ID50 values for a group of molecules are listed next.
test system: Human immunodeficiency virus type 1 reverse transcriptase (Human immunodeficiency virus 1), Q72547 [K103N]
REPORTED_METRIC: ID50 (µM)

- MOLECULE: "CCC(C)c1c(Cc2c(F)cccc2Cl)nc(SCC(=O)c2ccc(F)cc2)[nH]c1=O (stereo not given)"
  UNITS_TEXT: "µM"
  RELATION_SIGN: ">"
  OBSERVED_RESULT: 40
- MOLECULE: "COc1ccc(C(=O)CSc2nc(Cc3c(Cl)cccc3Cl)c(C)c(=O)[nH]2)cc1"
  UNITS_TEXT: "µM"
  RELATION_SIGN: ">"
  OBSERVED_RESULT: 40
- MOLECULE: "CC(C)c1c(Cc2c(F)cccc2Cl)nc(SCC(=O)c2ccc(F)cc2)[nH]c1=O"
  UNITS_TEXT: "µM"
  RELATION_SIGN: "="
  OBSERVED_RESULT: 40
- MOLECULE: "CC(C)c1c(Cc2c(F)cccc2F)nc(SCC(=O)c2ccccc2)[nH]c1=O"
  UNITS_TEXT: "µM"
  RELATION_SIGN: "="
  OBSERVED_RESULT: 1.58
- MOLECULE: "Cc1c(Cc2c(F)cccc2F)nc(SCC(=O)c2ccccc2)[nH]c1=O"
  UNITS_TEXT: "µM"
  RELATION_SIGN: "="
  OBSERVED_RESULT: 10.4
- MOLECULE: "COc1ccc(C(=O)CSc2nc(Cc3c(F)cccc3F)c(C)c(=O)[nH]2)cc1"
  UNITS_TEXT: "µM"
  RELATION_SIGN: "="
  OBSERVED_RESULT: 22.7
- MOLECULE: "O=C(CSc1nc(Cc2c(F)cccc2Cl)cc(=O)[nH]1)c1ccccc1"
  UNITS_TEXT: "µM"
  RELATION_SIGN: "="
  OBSERVED_RESULT: 2
- MOLECULE: "CCc1c(Cc2c(Cl)cccc2Cl)nc(SCC(=O)c2ccccc2)[nH]c1=O"
  UNITS_TEXT: "µM"
  RELATION_SIGN: "="
  OBSERVED_RESULT: 1.88
- MOLECULE: "CCc1c(Cc2c(F)cccc2F)nc(SCC(=O)c2ccc(OC)cc2)[nH]c1=O"
  UNITS_TEXT: "µM"
  RELATION_SIGN: "="
  OBSERVED_RESULT: 3.41
- MOLECULE: "CCc1c(Cc2c(Cl)cccc2Cl)nc(SCC(=O)c2ccc(OC)cc2)[nH]c1=O"
  UNITS_TEXT: "µM"
  RELATION_SIGN: "="
  OBSERVED_RESULT: 0.48
- MOLECULE: "COc1ccc(C(=O)CSc2nc(Cc3c(Cl)cccc3Cl)cc(=O)[nH]2)cc1"
  UNITS_TEXT: "µM"
  RELATION_SIGN: "="
  OBSERVED_RESULT: 37.5
- MOLECULE: "COc1ccc(C(=O)CSc2nc(Cc3c(F)cccc3Cl)c(C(C)C)c(=O)[nH]2)cc1"
  UNITS_TEXT: "µM"
  RELATION_SIGN: ">"
  OBSERVED_RESULT: 40
- MOLECULE: "Cc1c(Cc2c(F)cccc2F)nc(SCC(=O)c2ccc(F)cc2)[nH]c1=O"
  UNITS_TEXT: "µM"
  RELATION_SIGN: "="
  OBSERVED_RESULT: 12
- MOLECULE: "O=C(CSc1nc(Cc2c(F)cccc2Cl)cc(=O)[nH]1)c1ccc(F)cc1"
  UNITS_TEXT: "µM"
  RELATION_SIGN: "="
  OBSERVED_RESULT: 20.7
- MOLECULE: "Cc1c(Cc2c(Cl)cccc2Cl)nc(SCC(=O)c2ccccc2)[nH]c1=O"
  UNITS_TEXT: "µM"
  RELATION_SIGN: "="
  OBSERVED_RESULT: 12
